STUDY SYSTEM: hYANK3 (Homo sapiens, UniProt Q86UX6)
Sequence (Q86UX6 whole entry): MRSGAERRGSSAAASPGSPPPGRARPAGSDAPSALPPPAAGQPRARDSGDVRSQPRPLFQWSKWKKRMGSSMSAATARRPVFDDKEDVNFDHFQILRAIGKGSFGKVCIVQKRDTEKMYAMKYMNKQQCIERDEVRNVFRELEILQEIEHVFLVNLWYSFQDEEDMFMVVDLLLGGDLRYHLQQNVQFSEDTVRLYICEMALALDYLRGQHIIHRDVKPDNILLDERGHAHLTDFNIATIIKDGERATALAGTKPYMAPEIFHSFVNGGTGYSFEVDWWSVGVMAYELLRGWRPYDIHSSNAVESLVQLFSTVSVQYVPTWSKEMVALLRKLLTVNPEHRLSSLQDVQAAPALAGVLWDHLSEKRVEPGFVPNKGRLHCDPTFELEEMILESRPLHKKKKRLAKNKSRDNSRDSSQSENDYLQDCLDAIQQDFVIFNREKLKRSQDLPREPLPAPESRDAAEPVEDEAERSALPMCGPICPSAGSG
pIC50: −log10 of the molar value.
READOUT KIND: pIC50

INSERT INTO measurements (compound, assay_result) VALUES
  ('Cc1cn(CCN2CCN(c3ccccc3-c3cc(C#N)cc(C(=O)NCCCN4CCCC4)c3)CC2)c2ccccc12 [LLY-507]', '< 4.70');

====

Protein target, amino acids: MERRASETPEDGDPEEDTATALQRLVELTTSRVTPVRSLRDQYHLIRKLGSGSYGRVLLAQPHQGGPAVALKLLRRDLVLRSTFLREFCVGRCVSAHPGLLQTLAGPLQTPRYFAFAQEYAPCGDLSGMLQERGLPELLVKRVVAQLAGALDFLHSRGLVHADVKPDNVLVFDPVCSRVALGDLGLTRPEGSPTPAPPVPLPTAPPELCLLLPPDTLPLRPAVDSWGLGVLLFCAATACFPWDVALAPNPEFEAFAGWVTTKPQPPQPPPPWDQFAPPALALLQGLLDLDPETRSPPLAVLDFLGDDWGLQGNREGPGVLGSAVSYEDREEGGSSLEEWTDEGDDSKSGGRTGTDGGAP
READOUT KIND: IC50

INSERT INTO measurements (molecular_string, assay_result) VALUES
  ('Cc1cn(CCN2CCN(c3ccccc3-c3cc(C#N)cc(C(=O)NCCCN4CCCC4)c3)CC2)c2ccccc12', '> 20 µM');
